List of log10 of AUCt/dose values.
- assay-notes: Dose normalized AUC (0 to inf) in Sprague-Dawley rat at 20 to 25 mg/kg, po measured up to 24 hrs by LC-MS/MS analysis
- Assay type: ADME, organism-based
- experimental-setup: in vivo, dose 20-25 mg/kg
Scale type: logarithmic (base 10). Underlying AUCt/dose unit: ng.hr/mL per mg/kg.

# smiles-data, log10 of AUCt/dose
rows = [
    ("COc1ccc(CNC(=O)Nc2ccc(Oc3ncnc4cc(N(C)C)ccc34)cc2)cn1", 2.37),
]

## Input Assign log10 of AUCt/dose to the following record: COc1ccc(CNC(=O)Nc2ccc(Oc3ncnc4cc(N(C)C)ccc34)cc2)cc1
## Output 1.18

## Input For COc1ccc(NC(=O)Nc2ccc(Oc3ncnc4cc(N(C)C)ccc34)cc2)cc1 , write its log10 of AUCt/dose.
## Output 1.96

## Input State its log10 of AUCt/dose for this compound: Cc1ccc(CNC(=O)Nc2ccc(Oc3ncnc4cc(N(C)C)ccc34)cc2)cn1
## Output 2.21

## Input Given the compound CN(C)c1ccc2c(Oc3ccc(NC(=O)NCc4ccc(F)cc4)cc3)ncnc2c1 , write its reported log10 of AUCt/dose.
## Output 1.95
